# assay.comment: COS7 lysate on small-molecule microarray, probe aHis, 635 nm (AID 1123);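 also: z-score combines 667nm fluorescence intensity with signal-to-noise per printed compound spot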
# run.conditions: COS7 cell lysate, fluorescence, higher = more signal
readout.name: composite z-score
Returns: the value as a bare number; no unit string appended.

Suppose we examine the compound "COCCOC(=O)N1C(=O)[C@@]2(c3cc(C#CCNC(N)=O)ccc31)[C@H](c1ccc(OCCO)cc1)N1[C@H](c3ccccc3)[C@H](c3ccccc3)OC(=O)[C@H]1[C@@H]2C(=O)N1CCN(c2ncccn2)CC1" ; what composite z-score value has been reported?
0.887

Query (compound): "CCOC(=O)C[C@H]1[C@H](OC(=O)Cc2ccc3c(c2)OCO3)[C@@H](NC(=O)c2ccccc2)c2cc(OCCCO)ccc2N1C(=O)c1ccc2ccccc2n1" ; field requested: composite z-score
0.526

Recorded composite z-score of "COC(=O)C(CC#Cc1ccc2c(c1)[C@]1(C(=O)N2)[C@H](C(=O)N2CCc3cc(OC)c(OC)cc3C2)[C@H]2C(=O)O[C@H](c3ccccc3)[C@H](c3ccccc3)N2[C@@H]1c1ccc(O)cc1)C(=O)OC" , please.
1.64

Looking for the measured composite z-score of CC1C=C(CCCO)C=C(C(=O)OCCS(C)(=O)=O)C(C(=O)OCCS(C)(=O)=O)=CN1Cc1cccc(OC(F)(F)F)c1 (stereo unspecified) , can you help?
2.22

composite z-score for "COC(=O)[C@@]1(Cc2ccc(F)cc2)[C@H]2c3cc(C(=O)N(C)C)n(Cc4ccc(C)c(F)c4F)c3C[C@H]2CN1C(=O)c1ccccc1" ?
3.15

Any idea what its composite z-score is? The compound is "COc1ccc([Si](C)(C)[C@@H]2[C@@H](CCO)O[C@]3(C(=O)N(Cc4ccccc4)c4ccc(N5C(=O)COc6ccccc65)cc43)[C@H]2C)cc1"
0.841

Form field: reported composite z-score of "O=C1O[C@H](c2ccccc2)[C@H](c2ccccc2)N2[C@H]1[C@@H](C(=O)N1CCN(c3ncccn3)CC1)[C@]1(C(=O)Nc3ccc(C#CCCO)cc31)[C@H]2c1ccccc1OCCO"
2.03

Name the reported composite z-score value associated with the compound "COc1ccc(C(=O)Nc2ccc(CN3C(=O)[C@]4(O[C@H](CCn5cc([C@H](O)c6ccccc6)nn5)[C@@H]([Si](C)(C)c5ccc(OC)cc5)[C@@H]4C)c4ccccc43)cc2)cc1"
0.891

Bench note: what composite z-score did "CCCC=C(CCC)[C@@H](NS(=O)(=O)c1ccccc1)c1ccc(C(F)(F)F)cc1" show?
2.65

Item under review: C=CCC(OC(C)=O)[C@@H]1[C@@H](N(Cc2ccc(-c3ccccc3)cc2)C(=O)Cc2ccc(OC)cc2)c2cc(OCCCO)ccc2N1C(=O)c1ccc(-c2ccccc2)cc1 (stereo partly specified) . Reported composite z-score?
-0.0315

Consider the compound "COc1cc2c(cc1OC)CN(C(=O)[C@@H]1[C@H]3C(=O)O[C@H](c4ccccc4)[C@H](c4ccccc4)N3[C@H](c3ccc(O)cc3)[C@@]13C(=O)Nc1ccc(C#CCNC(N)=O)cc13)CC2" and give its measured composite z-score.
0.276

Need composite z-score of "C=C(/C(=C/C[C@@H](OC(=O)c1ccncc1)c1cccc(OCCO)c1)c1cc(C(=O)OC)ccc1OC)C(C)C" , thanks.
1.23

GET /values?readout=composite z-score&item= "C[N+](C)(C)CCCC[C@@H]1NC(=O)[C@@H]2C[C@H](C(=O)NCCCCCNC(=O)CS)[C@H](c3cccc(OCCO)c3)N2C1=O"
0.46

Param item = "CC(C)C[C@@H]1NC(=O)[C@@H]2C[C@H](C(=O)NCCCC[N+](C)(C)C)[C@H](c3cccc(OCCO)c3)N2C1=O" ; retrieve measured composite z-score.
0.432

Would you kindly share the measured composite z-score for "C=CC[C@@]1(C(=O)NCCN2CCOCC2)N=C(c2ccc(OCCCO)cc2)O[C@@H]1c1ccccc1" ?
2.52

Can you share its composite z-score? I mean this compound: "COC(=O)C(CC#Cc1ccc2c(c1)[C@]1(C(=O)N2)[C@H](c2ccccc2OCCO)N2[C@H](c3ccccc3)[C@H](c3ccccc3)OC(=O)[C@H]2[C@@H]1C(=O)Nc1nc2ccccc2s1)C(=O)OC"
1.9

Tell me the measured composite z-score of "COc1ccc([Si](C)(C)[C@@H]2[C@@H](CC(=O)N3Cc4ccccc4C[C@H]3CO)O[C@]3(C(=O)N(Cc4cccc(N5CCCCC5=O)c4)c4ccccc43)[C@H]2C)cc1" , please.
0.977

Value lookup for composite z-score; key = "COc1ccc(CCNC(=O)[C@@H]2c3ccccc3C(=O)N(Cc3ccccc3C(F)(F)F)[C@H]2c2ccc(CO)cc2)cc1"
1.29

For CCCCC(CC)C(O)C1C=CC2C(=O)NC(=O)C2N1Nc1ccccn1 (stereo unspecified) , what is its reported composite z-score?
2.53

Request the reported composite z-score associated with "Cc1ccc(S[C@]2(C(=O)O)CC(=O)N(C3CCCCC3)[C@@H]2c2ccc(CO)cc2)cc1"
1.29

Which composite z-score is listed for "C#CCNS(=O)(=O)N(C)C" ?
0.214

Give its composite z-score value. Item: "CC(C)CN1C(=O)[C@@]2(Cc3ccccc31)c1ccccc1C(=O)N(Cc1ccccc1)[C@H]2c1ccc(CO)cc1"
0.179

What does the data say about its composite z-score? Entry: "C=C(CCCC)/C(=C/C[C@H](OC(=O)c1ccncc1)c1ccc(CO)o1)c1cc(C(=O)OC)ccc1OC"
1.38

Value lookup for composite z-score; key = "CC(C)(C)OC(=O)CC[C@]1(C(=O)O)COC(c2ccc(OCCCO)cc2)=N1"
1.11

So what's the measured composite z-score for this one? "COCCOC(=O)N1C(=O)[C@@]2(c3ccccc31)[C@H](c1ccccc1OCCO)N1[C@H](c3ccccc3)[C@H](c3ccccc3)OC(=O)[C@H]1[C@@H]2C(=O)N1CCc2cc(OC)c(OC)cc2C1"
0.51

Please report the recorded composite z-score for CC(C)C[C@@H]1NC(=O)[C@@]23C(=O)N[C@@H](Cc4ccccc4)C2[C@H](C)[C@@]2(C)O[C@H]2C3/C=C/C/C=C\CNC(=O)[C@@H]2CCCN2C1=O (stereo partly specified) .
-0.351

---

Answer each item with its documented composite z-score.
# target.of.assay: Torsin-1A (Homo sapiens)
# assay.comment: torsin A mutant lysate binding on microarrays – cell lysate, small-molecule microarray, COS7 lysate, 635/667 nm fluorescence, primary screen (AID 1150);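 also: score pools 667 nm emission and signal to noise measuring lysate protein binding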
# run.conditions: COS7 hTOR1A mutant lysate, 635 nm fluorescence, higher = more signal

Write down the reported composite z-score of "COc1ccc(C#Cc2ccc3c(c2)[C@]2(C(=O)N3)[C@H](C(N)=O)[C@H]3C(=O)O[C@H](c4ccccc4)[C@H](c4ccccc4)N3[C@@H]2c2ccc(O)cc2)cc1" , test system: Torsin-1A (Homo sapiens).
1.03

Which measured composite z-score belongs to "C=CCNC(=O)[C@H]1[C@@H]2C(=O)O[C@@H](c3ccccc3)[C@@H](c3ccccc3)N2[C@@H](c2ccc(OCCO)cc2)[C@]12C(=O)N(C(=O)OCCOC)c1ccc(C#CC3=CCCCC3)cc12" , tested on Torsin-1A (Homo sapiens)?
0.868

What reported composite z-score corresponds to "COC(=O)[C@@]1(Cc2ccccc2)[C@H]2c3cc(C(=O)N(C)C)n(Cc4ccccn4)c3C[C@H]2CN1C(=O)c1ccccc1" on Torsin-1A (Homo sapiens)?
0.239

---

# assay.comment: probe aLefty1 binding on compound microarray – biochemical, small-molecule microarray, 635/667 nm fluorescence, primary screen (AID 1153);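 also: score merges spot fluorescence with signal-to-noise ratio from the scanned slide images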
# run.conditions: higher = more signal
We'd kindly ask you to apply these composite z-score classes: c1: < 0.008; c2: ≥ 0.008 and < 0.2; c3: ≥ 0.2

Please indicate the class for "COCCOC(=O)N1C(=O)[C@@]2(c3cc(C#CCCO)ccc31)[C@H](c1ccc(OCCO)cc1)N1[C@H](c3ccccc3)[C@H](c3ccccc3)OC(=O)[C@H]1[C@@H]2C(=O)N1CCc2cc(OC)c(OC)cc2C1" based on its composite z-score.
c3

Quick check: band for "COC(=O)C(CC#Cc1ccc2c(c1)[C@]1(C(=O)N2)[C@H](C(=O)N2CCc3cc(OC)c(OC)cc3C2)[C@H]2C(=O)O[C@H](c3ccccc3)[C@H](c3ccccc3)N2[C@@H]1c1ccc(O)cc1)C(=O)OC"
c1

State the class of the compound shown: "COC(=O)[C@@]1(Cc2ccccc2)[C@H]2c3cc(C(=O)N4CCCC4)n(Cc4ccccc4)c3C[C@H]2CN1C(=O)c1ccccc1"
c2

Category of "CN(C)C(=O)[C@@]1(CCS(=O)(=O)c2ccccc2)N=C(c2ccc(OCCCO)cc2)O[C@H]1c1ccccc1CN=[N+]=[N-]" , please.
c3

Hi there! Could you help me figure out the category for "CN(C)C(=O)[C@]1(Cc2ccccc2N=[N+]=[N-])N=C(c2ccc(OCCCO)cc2)O[C@@H]1c1ccccc1CN=[N+]=[N-]" please?
c3

Each compound maps to one class by composite z-score. Which class for "CC(=O)NCCCC[C@@H]1NC(=O)[C@H]2C[C@@H](C(=O)NCCCCCN)[C@@H](c3cccc(OCCO)c3)N2C1=O" ?
c3

Sort "CN(C)CCCCCCNC(=O)[C@@H]1C[C@@H]2C(=O)NCC(=O)N2[C@@H]1c1ccc(O)cc1" into one of the categories.
c3

Looking at CC(C)C[C@@H]1NC(=O)[C@@]23C(=O)N[C@@H](Cc4ccccc4)C2[C@H](C)[C@@]2(C)O[C@H]2C3/C=C/C/C=C\CNC(=O)[C@@H]2CCCN2C1=O (stereo partly drawn) , which class would you pick?
c1

Please classify: COC(=O)c1ccc(OC)c(/C=C\CC(CCc2ccccc2)OC(=O)c2ccncc2)c1 (stereo not drawn)
c1

Bin? "[N-]=[N+]=NCc1ccccc1[C@H]1OC(c2ccc(OCCCO)cc2)=N[C@@]1(Cc1ccccc1)C(N)=O"
c2

// return the class label for "O=C(NCc1ccccc1)[C@]1(Cc2ccccc2)N=C(c2ccc(OCCCO)cc2)O[C@@H]1c1ccccc1"
c1

Just checking, what class would you give "COCCOC(=O)N1C(=O)[C@@]2(c3cc(C#CCNC(N)=O)ccc31)[C@H](c1ccc(OCCO)cc1)N1[C@H](c3ccccc3)[C@H](c3ccccc3)OC(=O)[C@H]1[C@@H]2C(=O)N1CCN(c2ncccn2)CC1" here?
c3

Input "COCCCNC(=O)[C@]1(Cc2ccccc2)N=C(c2ccc(OCCCO)cc2)O[C@@H]1c1ccccc1N=[N+]=[N-]" ; output its category
c3

Would you mind sorting "NC(=O)NCC#Cc1ccc2c(c1)[C@]1(C(=O)N2)[C@H](c2ccc(O)cc2)N2[C@H](c3ccccc3)[C@H](c3ccccc3)OC(=O)[C@H]2[C@@H]1C(=O)NC[C@H](O)c1ccccc1" into the appropriate category?
c1

Which class holds "CN(C)CCCCNC(=O)[C@H]1C[C@H]2C(=O)N[C@@H](CCCC[N+](C)(C)C)C(=O)N2[C@H]1c1cccc(OCCO)c1" ?
c2

Just checking, what class would you give O=C1NC(=O)C2C1C=CC(C(O)CCc1ccccc1)N2Nc1ccccn1 (stereo not drawn) here?
c2

// bin(item) where item = "O=C1c2ccccc2[C@](Cc2ccccc2I)(C(=O)NCC(F)(F)F)[C@H](c2ccc(CO)cc2)N1Cc1ccccc1"
c1

Into which category would you place "O=C1N(CCS(=O)(=O)c2ccccc2)Cc2ccccc2C[C@@]12COC(c1ccc(OCCCO)cc1)=N2" ?
c2

Hi there! Could you help me figure out the category for N#Cc1ccc(NN2C(C(O)c3ccccc3)C=CC3C(=O)N(c4ccccc4)C(=O)C32)cc1 (stereo not drawn) please?
c1

Using the reported composite z-score, which band applies to "COC(=O)[C@@]1(Cc2ccccc2)[C@H]2c3cc(C(=O)N4CCCC4)n(CCO)c3C[C@H]2CN1C(=O)c1ccccc1" ?
c3

The entry to classify is O=C1NC(=O)C2C1C=CC(C(O)c1ccc3c(c1)OCO3)N2Nc1ccc(Cl)cc1Cl (stereo not drawn) ; which class holds it?
c2

Exam item: assign "COc1ccc([Si](C)(C)[C@@H]2[C@@H](CC(=O)N3Cc4ccccc4C[C@H]3CO)O[C@]3(C(=O)N(Cc4cccc(N5CCCCC5=O)c4)c4ccccc43)[C@H]2C)cc1" to the correct category.
c1

Into which category would you place "C=C[C@H](C)[C@H](OC(=O)Nc1ccc(SC)cc1)c1ccc(O)c2ccccc12" ?
c1

Which composite z-score category applies to "COCCCNC(=O)[C@]1(Cc2ccccc2CN=[N+]=[N-])N=C(c2ccc(OCCCO)cc2)O[C@@H]1c1ccccc1CN=[N+]=[N-]" here?
c3

Looking at "CCOC(=O)C1=CC[C@@H](c2ccccc2)N(S(=O)(=O)c2ccc(C)cc2)[C@H]1C=C(C)C" , which class would you pick?
c2

Could you place CC(C)(C)N1CC=CC23O[C@@H]4C=CCCOC(=O)C4[C@H]2C(=O)N(CCCO)[C@@H]3C1=O (stereo partly drawn) in its proper category? Many thanks.
c1

Note: place this compound into its band. Item: "C=C(C(=O)CC[C@H](OC(=O)c1cccnc1)c1ccc(OCCO)cc1)C(C)C"
c3
